- System: HT-1080.hFAP tumor-bearing mice
- Protocol details: Biodistribution studies in xenografted mice
- Format: in vivo
- Conditions used: 4 hours p.i., i.v.
Parameter measured: Biodistribution: Intestine (% I.A./g)
Quick reminder: number only, in % I.A./g, skip the unit.

GET /values?readout=Biodistribution: Intestine&system=HT-1080.hFAP tumor-bearing mice&item= CN(C(=O)CCC(=O)NCCNC(=O)CCC(C(=O)O)N1CCN(CC(=O)[O-])CCN(CC(=O)[O-])CC1)c1ccc2nccc(C(=O)NCC(=O)N3CC(F)(F)CC3C#N)c2c1.[61Cu+2] (stereo not shown) [[^61Cu]Cu-NODAGA-2]
0.3

Now give it for N#CC1CC(F)(F)CN1C(=O)CNC(=O)c1ccnc2ccc(NC(=O)CCC(=O)N3CCN(C(=O)CCC(C(=O)O)N4CCN(CC(=O)[O-])CCN(CC(=O)[O-])CC4)CC3)cc12.[61Cu+2] (stereo not shown) [[^61Cu]Cu-NODAGA-3] too.
0.4

Follow-up entry: CN(C(=O)CCC(=O)N1CCN(C(=O)CCC(C(=O)O)N2CCN(CC(=O)[O-])CCN(CC(=O)[O-])CC2)CC1)c1ccc2nccc(C(=O)NCC(=O)N3CC(F)(F)CC3C#N)c2c1.[61Cu+2] (stereo not shown) [[^61Cu]Cu-NODAGA-4]
0.3

Also need CN(CCCN1CCN(C(=O)CCC(C(=O)O)N2CCN(CC(=O)[O-])CCN(CC(=O)[O-])CC2)CC1)c1ccc2nccc(C(=O)NCC(=O)N3CC(F)(F)CC3C#N)c2c1.[61Cu+2] (stereo not shown) [[^61Cu]Cu-NODAGA-FAPI-46, reference compound] , thanks.
0.6

---

Could you please report measured Biodistribution: Spleen for the items listed next?
- System: HT-1080.hFAP tumor-bearing mice
- Protocol details: Biodistribution studies in xenografted mice
- Format: in vivo
- Conditions used: 4 hours p.i., i.v.
- Protocol: The tumors were allowed to grow to an average volume of 100-200 mm^3. Biodistribution Studies: The xenografted mice were randomized (n=5 per group) and injected intravenously via the tail vein with the ^61Cu-labeled radioligands (100 μL, […], 0.8-1MBq). Mice were euthanized 1 h and 4 h p.i. by CO2 asphyxiation. Organs of interest and blood were collected, rinsed of excess blood, blotted dry, weighed, and counted in a 7-counter. […]
Enter the number, and then the unit.

Bench note: what Biodistribution: Spleen did CN(C(=O)CCC(=O)N1CCN(C(=O)CCC(C(=O)O)N2CCN(CC(=O)[O-])CCN(CC(=O)[O-])CC2)CC1)c1ccc2nccc(C(=O)NCC(=O)N3CC(F)(F)CC3C#N)c2c1.[61Cu+2] (centres unmarked) [[^61Cu]Cu-NODAGA-4] show?
0.2 ± 0.0 % I.A./g

Now this one: CN(CCCN1CCN(C(=O)CCC(C(=O)O)N2CCN(CC(=O)[O-])CCN(CC(=O)[O-])CC2)CC1)c1ccc2nccc(C(=O)NCC(=O)N3CC(F)(F)CC3C#N)c2c1.[61Cu+2] (centres unmarked) [[^61Cu]Cu-NODAGA-FAPI-46, reference compound]
0.5 ± 0.1 % I.A./g

Same question, N#CC1CC(F)(F)CN1C(=O)CNC(=O)c1ccnc2ccc(NC(=O)CCC(=O)N3CCN(C(=O)CCC(C(=O)O)N4CCN(CC(=O)[O-])CCN(CC(=O)[O-])CC4)CC3)cc12.[61Cu+2] (centres unmarked) [[^61Cu]Cu-NODAGA-3] this time
0.3 ± 0.0 % I.A./g

Then CN(C(=O)CCC(=O)NCCNC(=O)CCC(C(=O)O)N1CCN(CC(=O)[O-])CCN(CC(=O)[O-])CC1)c1ccc2nccc(C(=O)NCC(=O)N3CC(F)(F)CC3C#N)c2c1.[61Cu+2] (centres unmarked) [[^61Cu]Cu-NODAGA-2] ?
0.2 ± 0.0 % I.A./g

What would you report for N#CC1CC(F)(F)CN1C(=O)CNC(=O)c1ccnc2ccc(NC(=O)CCC(=O)NCCNC(=O)CCC(C(=O)O)N3CCN(CC(=O)[O-])CCN(CC(=O)[O-])CC3)cc12.[61Cu+2] (centres unmarked) [[^61Cu]Cu-NODAGA-1] ?
0.5 ± 0.1 % I.A./g

---

- Tested on: HT-1080.hFAP tumor-bearing mice
- Protocol details: Biodistribution studies in xenografted mice
- Format: in vivo
- Conditions used: 1 hour p.i., i.v.
Parameter measured: Biodistribution: Liver

Query Biodistribution: Liver on HT-1080.hFAP tumor-bearing mice for N#CC1CC(F)(F)CN1C(=O)CNC(=O)c1ccnc2ccc(NC(=O)CCC(=O)N3CCN(C(=O)CCC(C(=O)O)N4CCN(CC(=O)[O-])CCN(CC(=O)[O-])CC4)CC3)cc12.[61Cu+2] (stereo not shown) [[^61Cu]Cu-NODAGA-3]
0.9 ± 0.1 % I.A./g

Same for CN(CCCN1CCN(C(=O)CCC(C(=O)O)N2CCN(CC(=O)[O-])CCN(CC(=O)[O-])CC2)CC1)c1ccc2nccc(C(=O)NCC(=O)N3CC(F)(F)CC3C#N)c2c1.[61Cu+2] (stereo not shown) [[^61Cu]Cu-NODAGA-FAPI-46, reference compound]
0.9 ± 0.0 % I.A./g

Subsequent entry: CN(C(=O)CCC(=O)NCCNC(=O)CCC(C(=O)O)N1CCN(CC(=O)[O-])CCN(CC(=O)[O-])CC1)c1ccc2nccc(C(=O)NCC(=O)N3CC(F)(F)CC3C#N)c2c1.[61Cu+2] (stereo not shown) [[^61Cu]Cu-NODAGA-2]
0.6 ± 0.1 % I.A./g

CN(C(=O)CCC(=O)N1CCN(C(=O)CCC(C(=O)O)N2CCN(CC(=O)[O-])CCN(CC(=O)[O-])CC2)CC1)c1ccc2nccc(C(=O)NCC(=O)N3CC(F)(F)CC3C#N)c2c1.[61Cu+2] (stereo not shown) [[^61Cu]Cu-NODAGA-4] ?
0.6 ± 0.1 % I.A./g

---

- Tested on: HT-1080.hFAP tumor-bearing mice
- Protocol details: Biodistribution studies in xenografted mice
- Format: in vivo
- Conditions used: FAP-positive tumor, 1 hour p.i., i.v.
Parameter measured: Biodistribution: HT-1080.hFAP (% I.A./g)
Your answer should be a plain number; it is taken to be in % I.A./g.

Could you share which Biodistribution: HT-1080.hFAP value was measured for CN(CCCN1CCN(C(=O)CCC(C(=O)O)N2CCN(CC(=O)[O-])CCN(CC(=O)[O-])CC2)CC1)c1ccc2nccc(C(=O)NCC(=O)N3CC(F)(F)CC3C#N)c2c1.[61Cu+2] (centres unmarked) [[^61Cu]Cu-NODAGA-FAPI-46, reference compound] ?
8.4

Next record, please: CN(C(=O)CCC(=O)N1CCN(C(=O)CCC(C(=O)O)N2CCN(CC(=O)[O-])CCN(CC(=O)[O-])CC2)CC1)c1ccc2nccc(C(=O)NCC(=O)N3CC(F)(F)CC3C#N)c2c1.[61Cu+2] (centres unmarked) [[^61Cu]Cu-NODAGA-4]
7.4

Okay, and N#CC1CC(F)(F)CN1C(=O)CNC(=O)c1ccnc2ccc(NC(=O)CCC(=O)NCCNC(=O)CCC(C(=O)O)N3CCN(CC(=O)[O-])CCN(CC(=O)[O-])CC3)cc12.[61Cu+2] (centres unmarked) [[^61Cu]Cu-NODAGA-1] ?
12.6

What do you get for CN(C(=O)CCC(=O)NCCNC(=O)CCC(C(=O)O)N1CCN(CC(=O)[O-])CCN(CC(=O)[O-])CC1)c1ccc2nccc(C(=O)NCC(=O)N3CC(F)(F)CC3C#N)c2c1.[61Cu+2] (centres unmarked) [[^61Cu]Cu-NODAGA-2] ?
3.5

And N#CC1CC(F)(F)CN1C(=O)CNC(=O)c1ccnc2ccc(NC(=O)CCC(=O)N3CCN(C(=O)CCC(C(=O)O)N4CCN(CC(=O)[O-])CCN(CC(=O)[O-])CC4)CC3)cc12.[61Cu+2] (centres unmarked) [[^61Cu]Cu-NODAGA-3] ?
7.9

---

- Tested on: HT-1080.hFAP tumor-bearing mice
- Protocol details: Biodistribution studies in xenografted mice
- Type: in vivo
- Conditions used: 4 hours p.i., i.v.
Assign Biodistribution: Liver to each entry below.
Report the value in % I.A./g with no unit label.

// lookup Biodistribution: Liver for CN(CCCN1CCN(C(=O)CCC(C(=O)O)N2CCN(CC(=O)[O-])CCN(CC(=O)[O-])CC2)CC1)c1ccc2nccc(C(=O)NCC(=O)N3CC(F)(F)CC3C#N)c2c1.[61Cu+2] (centres unmarked) [[^61Cu]Cu-NODAGA-FAPI-46, reference compound]
0.8

// next record N#CC1CC(F)(F)CN1C(=O)CNC(=O)c1ccnc2ccc(NC(=O)CCC(=O)N3CCN(C(=O)CCC(C(=O)O)N4CCN(CC(=O)[O-])CCN(CC(=O)[O-])CC4)CC3)cc12.[61Cu+2] (centres unmarked) [[^61Cu]Cu-NODAGA-3]
0.7
